- ASSAY SUMMARY: recombinant UMI read abundance after kanamycin selection (control-corrected) (log10(CPM+1)); higher = more efficient recombination; extreme values may be limits of the assay; sequences stand for … in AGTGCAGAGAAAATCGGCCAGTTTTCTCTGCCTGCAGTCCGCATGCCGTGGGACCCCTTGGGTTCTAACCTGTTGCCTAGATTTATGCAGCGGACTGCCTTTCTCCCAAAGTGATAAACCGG…AGGTTGGTTTCACT; site = the 11-nt donor
Measured recombinant UMI read abundance (log10), listed per entry for reference.
Just the number, please.

CGGGTACCATGGACCGGTTTTCCCGGTAATCCGTATTTGAT (site CGGGAACCTAT)	0

Data request: Return the recorded recombinant UMI read abundance (log10) value; entry: GAACTATCATGGACCGGTTTTCCCGGTAATCCGTATTTGCC (site GAACTATCTGG)
Data returned: 1.78

Data request: Provide only the value of recorded recombinant UMI read abundance (log10) for ACCAATTCATGGACCGGTTTTCCCGGTAATCCGTATTTGCC (site GCCAATTCTGG)
Data returned: 0.507

Data request: Entry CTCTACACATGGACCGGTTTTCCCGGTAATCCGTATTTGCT (site CGCTACACTAG) needs its recombinant UMI read abundance (log10) filled in; supply it.
Data returned: 0.891

Data request: Give the reported value of recombinant UMI read abundance (log10) for this record: TACGGCCCATGGACCGGTTTTCCCGGTAATCCGTATTTGTT (site TACGGCCCTAA)
Data returned: 0.00191

====

- ASSAY SUMMARY: recombinant UMI read abundance after kanamycin selection (control-corrected) (log10(CPM+1)); higher = more efficient recombination; extreme values may be limits of the assay; sequences stand for … in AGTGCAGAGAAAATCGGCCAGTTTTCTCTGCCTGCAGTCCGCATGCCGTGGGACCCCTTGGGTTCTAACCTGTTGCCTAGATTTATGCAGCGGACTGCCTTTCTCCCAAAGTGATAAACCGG…AGGTTGGTTTCACT; site = the 11-nt donor
# maps each entry to its recombinant UMI read abundance (log10)
# answer = number (no unit)

Data request: Identify measured recombinant UMI read abundance (log10) corresponding to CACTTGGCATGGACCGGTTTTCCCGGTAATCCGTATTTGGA (site CACTTGGCTAC)
Data returned: 0.013

====

recombinant barcode read abundance (log10) values for the sequences below.
- ASSAY SUMMARY: recombinant barcode read abundance after kanamycin selection (control-corrected) (log10(CPM+1)); higher = more efficient recombination; sequences stand for … in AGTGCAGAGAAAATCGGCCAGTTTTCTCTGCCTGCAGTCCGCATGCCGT…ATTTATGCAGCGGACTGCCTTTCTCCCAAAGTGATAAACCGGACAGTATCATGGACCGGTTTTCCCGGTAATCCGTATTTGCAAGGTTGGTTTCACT; site = the 11-nt target
Format: numeric value only, no unit, no commentary.

The cases that follow already have their recombinant barcode read abundance (log10) on record.
GCGGGACCTTGGGTTCTAACCTGTTGCCTAG [GCGGGACCTAG_LTGcore_CT_RTGcore_CT] (site GCGGGACCTAG) (LTG core: CT, RTG core: CT)	2.64
GGCTCCCGATGGGTTCTAACCTGTTGCGGAG [GGCTCCCCTCC_LTGcore_GA_RTGcore_CT] (site GGCTCCCCTCC) (LTG core: GA, RTG core: CT)	0.104
AAACATGCTTGGGTTCTAACCTGTTGCCTAG [AAACATGCTAG_LTGcore_CT_RTGcore_CT] (site AAACATGCTAG) (LTG core: CT, RTG core: CT)	1.43
ACGGGACGTTGGGTTCTAACCTGTTGCAGAC [ACGGGACCTCT_LTGcore_GT_RTGcore_GT] (site ACGGGACCTCT) (LTG core: GT, RTG core: GT)	0.0225

Switching to the query record.
Data request: Kindly indicate its recorded recombinant barcode read abundance (log10). Item: TGTATTCAGTGGGTTCTAACCTGTTGCCTCT [TGTATTCCTAG_LTGcore_AG_RTGcore_AG] (site TGTATTCCTAG) (LTG core: AG, RTG core: AG)
Data returned: 0.00767

====

- ASSAY SUMMARY: recombinant UMI read abundance after kanamycin selection (control-corrected) (log10(CPM+1)); higher = more efficient recombination; extreme values may be limits of the assay; sequences stand for … in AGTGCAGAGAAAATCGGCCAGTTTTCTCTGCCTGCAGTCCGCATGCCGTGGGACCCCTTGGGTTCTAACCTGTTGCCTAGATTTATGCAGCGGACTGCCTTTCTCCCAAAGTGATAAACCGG…AGGTTGGTTTCACT; site = the 11-nt donor
MEASURED ATTRIBUTE: recombinant UMI read abundance (log10)
Output spec: single numeric token, no unit.

Sample records with recombinant UMI read abundance (log10):
AGAACTACATGGACCGGTTTTCCCGGTAATCCGTATTTGAC (site AGCACTACTGT)	0
CGAGCGCCATGGACCGGTTTTCCCGGTAATCCGTATTTGTG (site CGAGCGCCTCA)	0.219
GCACATCCATGGACCGGTTTTCCCGGTAATCCGTATTTGAC (site CCACATCCTGT)	0

Data request: Please report recombinant UMI read abundance (log10) for the following sequence: CCGACCTCATGGACCGGTTTTCCCGGTAATCCGTATTTGGT (site CCGACCTCTAC)
Data returned: 0.121

Data request: Using known records, supply recombinant UMI read abundance (log10) for ACACATCCATGGACCGGTTTTCCCGGTAATCCGTATTTGAG (site ACACATCCTTT)
Data returned: 0.381

====

- ASSAY SUMMARY: recombinant barcode read abundance after kanamycin selection (control-corrected) (log10(CPM+1)); higher = more efficient recombination; sequences stand for … in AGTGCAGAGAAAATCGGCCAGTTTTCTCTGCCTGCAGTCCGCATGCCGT…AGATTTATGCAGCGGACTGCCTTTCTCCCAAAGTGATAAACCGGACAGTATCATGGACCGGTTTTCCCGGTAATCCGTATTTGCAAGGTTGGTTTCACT; site = the 11-nt target
MEASURED ATTRIBUTE: recombinant barcode read abundance (log10)
Lab note: jot down the number only; don't add units.

Data request: Please indicate recombinant barcode read abundance (log10) recorded for TGGTTACCTTGGGTTCTAACCTGTTGCCT (site TGGTTACCTAG)
Data returned: 1.17

Data request: Please look at this sequence and report its recombinant barcode read abundance (log10): GATAGTACTTGGGTTCTAACCTGTTGCCT (site GATAGTCCTAG)
Data returned: 0.0718

Data request: Tell me its recombinant barcode read abundance (log10) given CTTGGGTCTTGGGTTCTAACCTGTTGCCT (site CTTGGTTCTAG) as the entry.
Data returned: 0.122

====

Recorded recombinant barcode read abundance (log10) by entry
- ASSAY SUMMARY: recombinant barcode read abundance after kanamycin selection (control-corrected) (log10(CPM+1)); higher = more efficient recombination; sequences stand for … in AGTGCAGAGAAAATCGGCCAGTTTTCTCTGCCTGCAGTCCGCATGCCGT…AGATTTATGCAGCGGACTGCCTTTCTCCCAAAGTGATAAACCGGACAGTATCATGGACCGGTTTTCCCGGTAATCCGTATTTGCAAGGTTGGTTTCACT; site = the 11-nt target
The answer should be written as a number, with no unit following it.

See these solved cases before continuing.
TATTATACTTGGGTTCTAACCTGTTGCAT (site TATTATACTAT)	0.167
TTAGTGGCTTGGGTTCTAACCTGTTGCCT (site TTAGTAGCTAG)	0.607
ACTTAGACTTGGGTTCTAACCTGTTGCCG (site ACTTAGACTTG)	0.129
GGTTGACCTTGGGTTCTAACCTGTTGCAT (site GGTTGACCTAT)	0.913
TAGGCTCCTTGGGTTCTAACCTGTTGCCG (site TAGGCTCCTCG)	0.412
CAGAGTCCTTGGGTTCTAACCTGTTGCAT (site CAGAGTCCTAG)	0.852

Data request: Using the record for GTCCTACCTTGGGTTCTAACCTGTTGCAA (site GTCCTACCTTT) , state its measured recombinant barcode read abundance (log10).
Data returned: 1.45

Data request: Identify measured recombinant barcode read abundance (log10) associated with CACTAGACTTGGGTTCTAACCTGTTGCCG (site GTGACTGCTAC)
Data returned: 0.242

Data request: Specify recombinant barcode read abundance (log10) for TGGCTCCCTTGGGTTCTAACCTGTTGCCG (site TGGCTCCCTCC) and stop.
Data returned: 0.077

Data request: State its recombinant barcode read abundance (log10): CCATACTCTTGGGTTCTAACCTGTTGCTT (site CCATACTCTAA)
Data returned: 1.17

Data request: Consider the sequence AAGAAAGCTTGGGTTCTAACCTGTTGCCT (site AAGAAAGCTAG) . State its measured recombinant barcode read abundance (log10).
Data returned: 1.82

Data request: State its recombinant barcode read abundance (log10) for this sequence: TCTAGAGCTTGGGTTCTAACCTGTTGCCT (site TCTAGAGCTAG)
Data returned: 0.0183

Data request: Annotate the sequence GCCGACCCTTGGGTTCTAACCTGTTGCCG (site GCCGACCCTCG) with its measured recombinant barcode read abundance (log10).
Data returned: 0.492

Data request: Given the sequence CCGTTATCTTGGGTTCTAACCTGTTGCCT (site CCGCTATCTAG) , write its reported recombinant barcode read abundance (log10).
Data returned: 0

Data request: Entry ATCCTTACTTGGGTTCTAACCTGTTGCCT (site AACCTTACTAG) needs its recombinant barcode read abundance (log10) filled in; supply it.
Data returned: 0.247

Data request: Return the recorded recombinant barcode read abundance (log10) value; entry: CGCCCGCCTTGGGTTCTAACCTGTTGCCT (site AGCCCGCCTAG)
Data returned: 0.165

Data request: Give the measured recombinant barcode read abundance (log10) for CTGTTATCTTGGGTTCTAACCTGTTGCCT (site CTGTTATCTAG)
Data returned: 0.237

Data request: Report measured recombinant barcode read abundance (log10); entry is GCAAGTTCTTGGGTTCTAACCTGTTGCCT (site GTAAGTTCTAG)
Data returned: 0.229

Data request: Read off the recorded recombinant barcode read abundance (log10) for CCGCACACTTGGGTTCTAACCTGTTGCCT (site GCGCACACTAG)
Data returned: 0.213

Data request: Find the measured recombinant barcode read abundance (log10) of GGCACAGCTTGGGTTCTAACCTGTTGCCT (site GGCACAGCTAG) and report it.
Data returned: 0

Data request: Report measured recombinant barcode read abundance (log10); entry is GGTTCCTCTTGGGTTCTAACCTGTTGCGG (site GGTTCCTCTCC)
Data returned: 0.933
